Collected switch fluorescence ratio values appear next to each entry.
system: ATP; test: switch fluorescence ratio, 500 uM ATP over buffer (Cy3 cluster intensity, sum of 5 cycles each) (fold (ratio)); higher = stronger signal-on switching upon ATP binding; sequences stand for … in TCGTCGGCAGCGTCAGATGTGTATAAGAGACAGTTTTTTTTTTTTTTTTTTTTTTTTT…TC; settings: aptamer strand: ATP DNA aptamer (quencher-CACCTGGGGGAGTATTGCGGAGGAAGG + anchor), 100 nM annealed; ATP concentration: 500 uM;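 further: ATP exposure 15 min at 22 °C before imaging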
Output spec: single numeric token, no unit.

A selection of reference data follows.
SEQUENCE CONTENT | switch fluorescence ratio
ACGTAGGCGG | 1.02
TTGGACGCAC | 2.08
AGGTCGTTTT | 0.991

Tell me measured switch fluorescence ratio for `TTGTAGTTTT` please.
1.01

Tell me measured switch fluorescence ratio for `CGAAGGGGGG` please.
1.03

Tell me measured switch fluorescence ratio for `TCGCGGGGGA` please.
1.01

Tell me measured switch fluorescence ratio for `GTTGAATTTT` please.
1.01

Tell me measured switch fluorescence ratio for `CGCGGAGGGG` please.
1.01

Tell me measured switch fluorescence ratio for `GAATATTTAA` please.
0.998

Tell me measured switch fluorescence ratio for `GGTGAAGGTG` please.
1.36

Tell me measured switch fluorescence ratio for `CGTTTAGGCT` please.
1.07
